Target Entity: recombinant protein containing hST2 extracellular domain with human antibody heavy chain Fc tag (hST2-ECD-hFc) (human)
Sequence (chain, as listed by the source limits assumed): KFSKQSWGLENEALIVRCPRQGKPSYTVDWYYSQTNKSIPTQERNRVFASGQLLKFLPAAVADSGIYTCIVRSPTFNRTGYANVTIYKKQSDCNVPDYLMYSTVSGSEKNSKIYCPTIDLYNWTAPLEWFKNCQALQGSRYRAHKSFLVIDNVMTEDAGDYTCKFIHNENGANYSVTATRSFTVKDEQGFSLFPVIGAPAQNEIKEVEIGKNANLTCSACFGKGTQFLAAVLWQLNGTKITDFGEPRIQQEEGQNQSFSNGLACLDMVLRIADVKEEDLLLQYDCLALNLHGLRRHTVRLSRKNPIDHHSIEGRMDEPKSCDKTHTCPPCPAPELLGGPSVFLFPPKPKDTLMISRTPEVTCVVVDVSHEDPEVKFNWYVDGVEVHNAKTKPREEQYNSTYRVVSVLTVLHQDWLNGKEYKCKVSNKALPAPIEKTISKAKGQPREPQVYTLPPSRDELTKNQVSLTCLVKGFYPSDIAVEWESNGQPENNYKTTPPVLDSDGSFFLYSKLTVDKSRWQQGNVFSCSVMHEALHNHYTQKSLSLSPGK
Assay Procedure: competition ELISA, coated hST2-ECD-hFc, antibody then biotin-labeled hIL33 Avitag (competitor)
Measured Quantity: pIC50
In simple prose, pIC50 is minus the logarithm base ten of a concentration in moles per litre.

Entry under test: Humanized 31C8-1.2 (antibody, human IgG2, kappa, V domains shown, also called hz31C8-1.2; hz31C81-1.2) VH: QVQLVQSGAKVKKPGATVKISCKASGYIFIDSEMHWVQQAPGKGLEWMGAIDPETGDTVYAKKFKGRVTITADKSSSTAYMELSSLRSEDTAVYYCTGSTTDYYFAYWGQGTLVTVSS VL: DIQMTQSPSSLSASVGDRVTITCRSSKSLLHSNGIIYLYWYQQKPGKAPKLLIYQLSNLASGVPSRFSSSGSGTDFTLTISSLQPEDFATYYCAQNLELPFTFGQGTKVEIKR . Its pIC50 was 8.65
